The origin of these recorded values is patent US20230220381.

target: Thrombin (Homo sapiens) (UniProt P00734+P00734); assay: FP; details: Phe at library positions 5 and 3, C12 at position 4, Nap at position 1 (3' end) (unnatural monomers); fluorescence anisotropy, thrombin binding buffer; unit given as nmol
readout_name: Kd (nM)
Give your result in nM as a bare value.

# get_value(readout='Kd', item= GGGTGGPHECTGGPHETGGNAP [Aptamer3] )
6

---

target: Thrombin (Homo sapiens) (UniProt P00734+P00734); assay: FP; conditions: branched DNA-encoded construct with BU; aptamer branch GGTTGGC12GTGGAlkTGGTTTTT (C12 and Alk unnatural phosphodiester monomers); same buffer as TBA1F
readout_name: Kd (nM)
Give your result in nM as a bare value.

# get_value(readout='Kd', item= CGTCGAGGCCCGTGCTTACCCGTGACCTTCTTAGGAGGTTGGNGTGGNTGGTTTTTACACGTCACGCCTTTTTTTTT [TBA2F] )
89

---

biological target: Thrombin (Homo sapiens) (UniProt P00734+P00734); assay: MST; conditions: Phe at library positions 5 and 3, C12 at position 4, Nap at position 1 (3' end) (unnatural monomers); 2Bind, N=2, 100 nM aptamer, buffer without Triton X; unit given as nmol
readout_name: Kd (nM)
Give your result in nM as a bare value.

# returns recorded Kd (system: Thrombin (Homo sapiens) (UniProt P00734+P00734)) for GGGTGGPHECTGGPHETGGNAP [Aptamer3]
20

---

molecular target: Thrombin (Homo sapiens) (UniProt P00734+P00734); assay: FP; settings: Phe unnatural monomer at library position 5; fluorescence anisotropy; unit given as nmol
readout_name: Kd
Please provide the amount together with its unit, number first.

# returns recorded Kd (system: Thrombin (Homo sapiens) (UniProt P00734+P00734)) for GGTTGGPHEGTGGTTGGT [Aptamer1]
0.026 µM
